Target: T1, 006 PSMA Fab (biotinylated (site not given))
T1 construct: Biotinylated PSMA Fab captured on neutravidin coated plates for the clonal phage ELISA; also called Anti-PSMA Fab
Experiment: clonal phage ELISA on plate-bound PSMA Fab, competitor: PSMA antigen pre-incubated in the wells
Where no end group is shown, it is not given here.
property name: Phage binding ELISA signal, Anti-PSMA Fab in presence of PSMA

binder="SETWCIPAWMCLDG (cysteine pairing not given here; also: displayed on phage as fusion to pIII, pIII and linker sequence not given here, not shown: fused to pIII of the bacteriophage) [Phage-2503]" recorded_value=0.0745
binder="LVKLCSPEWMCVGM (cysteine pairing not given here; also: fused to phage pIII, linker and fusion site not given here, not shown: fused to pIII of the bacteriophage) [Phage-2511]" recorded_value=0.0667
binder="GEHWCIPAWMCEKM (cysteine pairing not given here; also: displayed on phage as fusion to pIII, pIII and linker sequence not given here, not shown: fused to pIII of the bacteriophage) [Phage-2498]" recorded_value=0.0615
binder="GTNWCKPDWMCVGL (cysteine pairing not given here; also: displayed on phage as fusion to pIII, pIII and linker sequence not given here, not shown: fused to pIII of the bacteriophage) [Phage-2500]" recorded_value=0.0855
binder="VQMLCIPAWMCGME (cysteine pairing not given here; also: displayed on phage as fusion to pIII, pIII and linker sequence not given here, not shown: fused to pIII of the bacteriophage) [Phage-2506]" recorded_value=0.107

Measured values drawn from patent US20260242478A1 for this set.
